experiment: NCI Yeast Anticancer Drug Screen. Data for the bub3 strain (AID 167); settings: S. cerevisiae bub3 mutant strain, at 5.0 µM (retest, dose inferred, filed as 0.5)
About 79,000 compounds went through this panel and 15% of them were active in at least one assay; those are over-represented in the sample as a whole. Calls of active or inactive are those of the source. No stated cut-off is given here; in the data, active means growth inhibition above about 70%; inactive means the rest. *1 amine or outer side, *2 acyl side, *3 side chain or, on linkers, in order; H or OH if unused. Where a SMILES comes first, the peptide text is derived from it. Bridges are numbered along the chain shown (N, C = ends). Roman numbers before positions name the chains, in order. [ ]: non-standard residue; d: D form. Actinocin(9to1) = Cc1c2oc3c(C)ccc(C(=O)[*:1])c3nc-2c(C(=O)[*:2])c(N)c1=O; NMeV = CN[CH](C(=O)O)C(C)C; Pip = O=C(O)[CH]1CCCCN1; Sar = CNCC(=O)O
Labels: True (active), False (inactive)

| molecule | cat |
| --- | --- |
| O=c1c(Cl)cc2nc3ccccc3sc-2c1Cl | False |
| Oc1ccc(C2Oc3ccccc3C=C2c2ccccc2)cc1 (centres undefined) | False |
| COc1nc2c(ccn2C2OC(COC(C)=O)C(OC(C)=O)C(OC(C)=O)C2OC(C)=O)c(=O)n1C (centres undefined) | False |
| Cc1cc(NC(=S)SCc2ccc3c(c2)OCO3)ccc1Br | False |
| CC(NC(=O)OC(C)(C)C)C(=O)NC(Cc1ccccc1)C(=O)NCC(=O)Oc1c(Cl)c(Cl)c(Cl)c(Cl)c1Cl (centres undefined) | False |
| Cc1c(C)c(O)c2c(c1O)C(=O)C=C(Cl)C2=O | True |
| C=C1CC(c2ccc(OCCCN3C(=O)c4ccccc4C3=O)cc2)OC1=O (centres undefined) | False |
| N#CN1CCCC(O)c2sc3ccccc3c2CC1 (centres undefined) | False |
| COc1ccc(SSc2ccc(OC)n[n+]2[O-])[n+]([O-])n1 | False |
| O=c1[nH]c2c([N+](=O)[O-])cc(Cl)cc2nc1/C=C(\O)c1ccc(Cl)cc1 | False |
| Nc1ccc2c(c1)Cc1c(Cl)cccc1-2 | False |
| O=C/C(Br)=C\c1ccccc1 | False |
| Cc1ccc(SCC#CC#CCS(=O)c2ccc(C)cc2)cc1 (centres undefined) | True |
| NC(=S)N/N=C1\NC(=O)/C(=C/c2ccc3c(c2)OCO3)S1 | False |
| Clc1ccc(CSc2ncnc3c2ncn3C2CCCCO2)cc1 (centres undefined) | False |
| Cc1c2oc3c(C)ccc(C(=O)NC4C(=O)NC(C(C)C)C(=O)N5CCCCC5C(=O)N(C)CC(=O)N(C)C(C(C)C)C(=O)OC4C)c3nc-2c(C(=O)NC2C(=O)NC(C(C)C)C(=O)N3CCCCC3C(=O)N(C)CC(=O)N(C)C(C(C)C)C(=O)OC2C)c(N)c1=O (centres undefined) (I: TV[Pip][Sar][NMeV] / II: TV[Pip][Sar][NMeV]; ester I:1-I:C, II:1-II:C; linker I:N-II:N via Actinocin(9to1); configuration not given here) | False |
| Cc1ccc(NC(=S)SCc2ccc(Cl)cc2)cc1C | False |
| CC(Cc1ccccc1)N1C(=O)C=CC1=O (centres undefined) | True |
| COC1=CC(=O)c2ncccc2C1=O | False |
| c1ccc2c(c1)Cc1cc3ccccc3nc1-2 | False |
| CCCCCCCCCCCC[n+]1cc2ccccc2cc1C | True |
| O=C(CCN1CCOCC1)c1ccc(Oc2ccc(F)cc2)cc1 | True |
| CC(CO)(CO)N=Cc1cc(I)cc(I)c1O | True |
| CCOc1ccc2nc([NH-])sc2c1.CCOc1ccc2nc([NH-])sc2c1.[Cl][Pt+2][Cl] | False |
| C=C1CC2(OC1=O)C(=O)N(C)c1ccccc12 (centres undefined) | False |
| OC1CC2OC2C1O (centres undefined) | False |
| Nc1ncnc2nc(SCCO)[nH]c12 | False |
| O=C(OCc1ccc2c(c1)OCO2)c1ccc(Cl)cc1 | False |
| CCCC(=O)Nc1cc([N+](=O)[O-])ccc1O | False |
| O=[N+]([O-])c1cc(C(F)(F)F)ccc1SSc1ccc(C(F)(F)F)cc1[N+](=O)[O-] | False |
| CC(C)Cn1cnc2c(SCc3cccc(F)c3)nc(N)nc21 | False |
| CN(C)c1ccc(/C=C/c2nc3ccccc3[nH]2)cc1 | False |
| ClC1(c2ccccc2)c2ccccc2-c2ccccc21 | False |
| ClC1=C(Cl)C(Cl)(Cl)C(Cl)(Cl)C1(Cl)Cl | False |
| Clc1ccc(-c2csc(NCC3CCCO3)n2)cc1 (centres undefined) | False |
| O=C1C2=C(c3ccccc31)C(c1ccccc1Cl)NC(=S)N2 (centres undefined) | False |
| N#CC1(C#N)C(C#N)(C#N)C12CCCCCC2 | False |
| Nc1ncnc2nn(C3OC(CO)C(O)C3O)nc12 (centres undefined) | False |
| CCCCN(c1ccccc1)c1ncnc2c1ncn2C | False |
| O=C(Cc1c[nH]c2ccccc12)N/N=C/c1ccc(Cl)cc1[N+](=O)[O-] | False |
| O=C(NCCCN1CC2CCCC2C1)C(C1CCCCC1)C1CCCCC1 (centres undefined) | False |
| CCOC(=O)Nc1nc2ccc(SC#N)cc2s1 | False |
| CN1CC[N+](C)(Cc2ccc(C[N+]3(C)CC[N+](C)(Cc4ccc(CCl)cc4)CC3)cc2)CC1 (centres undefined) | False |
| CCCCOC(=O)C(C)OC(=O)NNc1ccccc1 (centres undefined) | False |

====

experiment: NCI Yeast Anticancer Drug Screen. Data for the rad50 strain (AID 155);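 further: 0% = growth of vehicle-only cultures of the same strain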; settings: S. cerevisiae rad50 strain growth inhibition; at 50.0 µM (retest, dose inferred, filed as 5.0); stronger effect = higher value
This is part of a sample that, as a whole, favours compounds with a hit. Of some 79,000 tested, about 15% had one in any assay.
So basically every entry gets a class from its growth inhibition, ranges being lower level (below 20%), middle level (20% to below 80%), upper level (80% or more)

| compound | cat |
| --- | --- |
| CC/C(=N\OC(=O)Nc1ccccc1)c1ccc(OC(=O)Nc2ccccc2)cc1 | middle level |
| CCOC(=O)CC1=NC(=Nc2cc(Cl)ccc2Cl)SC1 | middle level |
| Clc1ccc(/C=N\Nc2c3ccccc3nc3ccccc23)cc1Cl | middle level |
| CCN(CC)c1ccc(NC(C(=O)c2ccc(Cl)cc2)c2ccc(Cl)cc2)cc1 (stereo unspecified) | lower level |
| CC(CC=NCCN=CCC(C)CC(C)(C)C)CC(C)(C)C (stereo unspecified) | lower level |
| O=C1CN(Cc2ccc(Cl)cc2)CC(=O)N2Cc3ccccc3CN12 | lower level |
| COc1cc(-c2ccc(-[n+]3nc(Cc4ccc5c(c4)OCO5)nn3-c3ccccc3)c(OC)c2)ccc1-[n+]1nc(Cc2ccc3c(c2)OCO3)nn1-c1ccccc1 | middle level |
| CC(C)(C)C1CCC2c3c([nH]c4ccccc34)C3C(=O)N(c4ccc(C(=O)O)cc4)C(=O)C3C2C1 (stereo unspecified) | upper level |
| Cc1nc(Nc2ccc(Cl)cc2)sc1C(=O)NNC(=S)NN | middle level |
| CC(=O)Nc1ccc(N=Cc2cc(Cl)cc(Cl)c2O)cc1 | upper level |
| Cc1c(-c2ccccc2)ccnc1/C=N/NC(=S)NCCc1ccccc1 | middle level |

====

experiment: NCI Yeast Anticancer Drug Screen. Data for the mec2-1 strain (AID 157); conditions: S. cerevisiae mec2-1 strain, at 50.0 µM (retest, dose inferred, filed as 5.0), stronger effect = higher value
The panel holds about 79,000 compounds, 15% with a hit somewhere; the sample as a whole holds those more often.

| compound | growth inhibition, % |
| --- | --- |
| CN(c1ccc(Cl)cc1)S(=O)(=O)c1cccc([N+](=O)[O-])c1 | 71 |
| Cc1cc([N+](=O)[O-])cc(C)[n+]1[O-] | 12 |
| O=C(O)c1ccc(OCc2ccccc2)c(Cl)c1 | 44 |
| Cc1c(-c2ccccc2)sc(/N=C/c2cc(Br)cc(Br)c2O)c1C#N | 34 |
| CC(C)OC(=O)c1ccc(CCC2=CC(=O)C=CC2=O)cc1 | 99 |
| Cc1ccc(SCC#CC#CCS(=O)c2ccc(C)cc2)cc1 (stereo unspecified) | 99 |

====

assay: NCI Yeast Anticancer Drug Screen. Data for the cln2 rad14 strain (AID 165);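 further: 0% = growth equal to vehicle treated cultures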; conditions: S. cerevisiae cln2 rad14 strain, at 50.0 µM (retest, dose inferred, filed as 5.0)
This is part of a sample that, as a whole, favours compounds with a hit. Of some 79,000 tested, about 15% had one in any assay. The source made the active and inactive calls. Rule as the data show it: active = growth inhibition above about 70%; inactive = the rest.
Labels: active, inactive

| molecule | cat |
| --- | --- |
| O=C1c2ccccc2C(=O)c2sc(Nc3ccccc3C(F)(F)F)nc21 | active |
| C=C(CSCCCCCCCCCCCC)C(=O)O | active |
| CC1(C)CNCC(C)(OCc2ccccc2)C(=O)NC(C)(C)CNCC(C)(OCc2ccccc2)C(=O)N1 (stereo not drawn) | inactive |
| N#CN1CCCC(O)c2sc3ccccc3c2CC1 (stereo not drawn) | inactive |
| Cc1ccc(N=Nc2sc(N)nc2C)cc1C | inactive |
| O=C1/C(=C\c2ccc(Cl)cc2)SC2SC=C(c3ccc([N+](=O)[O-])cc3)N12 (stereo not drawn) | active |
| CCN(CC)c1ccc(N=Nc2ccc(Br)cn2)c(O)c1 | inactive |
| COc1ccc(-c2ccccc2)cc1SCCC(=O)O | inactive |
| CC(/C=C/c1cccc(C)c1)=N\NC(N)=S | inactive |
| CNC1c2ccccc2C(=O)c2cc3c(cc21)OCCOCCOCCOCCO3 (stereo not drawn) | inactive |
| O=C(Cl)c1ccc(N=Nc2ccccc2)cc1 | inactive |
| O=[N+]([O-])c1cc(C(F)(F)F)ccc1SSc1ccc(C(F)(F)F)cc1[N+](=O)[O-] | inactive |
| C=C1CC2(CC(C(C)C)CCC2C)OC1=O (stereo not drawn) | inactive |
| O=C1C(c2c[nH]c3ccccc23)=Nc2ccc(Br)cc21 | inactive |
| Clc1cc[c]([Sn]([O][Sn]([c]2ccc(Cl)cc2)([c]2ccc(Cl)cc2)[c]2ccc(Cl)cc2)([c]2ccc(Cl)cc2)[c]2ccc(Cl)cc2)cc1 | active |
| COc1ccc2[nH]cc(C(=O)O)c2c1 | inactive |
| CC(=O)OCC1OC(n2cnc3c(Cl)nc(Cl)nc32)C(OC(C)=O)C1OC(C)=O (stereo not drawn) | inactive |
| COc1ccc(CSC2=C(C#N)C(=O)NC3(CCCCC3)S2)cc1 | inactive |
| NCC(=O)N/N=C/c1ccc([N+](=O)[O-])o1 | inactive |
| C=CC[C@]1(C(C)Cc2ccc(OC)c(OC)c2)C[C@@H](OC)C=CC1=O (stereo partly drawn) | active |
| CCCCCCCCCCCOc1cccc(N2C(N)=NC(N)=NC2(C)C)c1 | active |
| BrCN(CBr)c1ccc2c(c1)Cc1cc(Br)ccc1-2 | inactive |
| CCOC(=O)CSc1c(C(=O)OCC)c(=O)n(-c2ccccc2)c(=S)n1-c1ccccc1 | active |
